Tested on: methicillin-resistant Staphylococcus aureus (MRSA)
assay.text: microbe, parasite or virus in culture
Type: cell-based
condition.set: read-out: MIC MRSA
measurement.kind: MIC (µg/mL)
Give just the numeric value; µg/mL need not be written.

Task: Quick one: give measured MIC for `C=C(c1c[nH]c2ccccc12)c1c[nH]c2ccccc12`
Output: 8

Task: Quick one: give measured MIC for `c1ccc2c(Cc3[nH]c4ccccc4c3Cc3c[nH]c4ccccc34)c[nH]c2c1`
Output: 8

Task: Quick one: give measured MIC for `c1ccc2[nH]c(Cc3c[nH]c4ccccc34)cc2c1`
Output: 32

Task: Quick one: give measured MIC for `CCOC(=O)Oc1c2[nH]c3ccccc3c2cc2c1[nH]c1ccccc12`
Output: 4

Task: Quick one: give measured MIC for Cc1c2[nH]c3ccccc3c2cc2c1[nH]c1ccccc12 [drawing 263]
Output: 4

Task: Quick one: give measured MIC for `c1ccc2[nH]c(Cc3cc4ccccc4[nH]3)cc2c1`
Output: 32
